meta.source: ChEMBL document CHEMBL1143797

Test system: Staphylococcus epidermidis
test-protocol: Antibacterial activity against Staphylococcus epidermidis MTCCB 1824 at 30 ug/disc after 48 hrs by disc diffusion method
Format: functional
cond: read-out: IZ
Listed below: zone of inhibition at 30 µg/disc values for each entry.
Your answer is read as mm, so omit the unit and give the number.

Examples with their reported zone of inhibition at 30 µg/disc follow.
smiles-structure | unit-name | zone of inhibition at 30 µg/disc
N#CCN1CCN(c2ccccc2)CC1 | mm | 12
CN1CCN(CC#N)CC1 | mm | 8
N#CCN1CCN(Cc2ccccc2)CC1 | mm | 10

Using Staphylococcus epidermidis as the test system, report measured zone of inhibition at 30 µg/disc of N#CCCN1CCN(c2ccccc2)CC1 .
12

Provide measured zone of inhibition at 30 µg/disc on Staphylococcus epidermidis for N#CCCN1CCN(CCC#N)CC1 please.
9

State zone of inhibition at 30 µg/disc (Staphylococcus epidermidis) of N#CCCN1CCN(CCO)CC1 .
11

State the measured zone of inhibition at 30 µg/disc (Staphylococcus epidermidis) of COc1ccccc1N1CCN(CCC#N)CC1
9

Fill in zone of inhibition at 30 µg/disc for CN1CCN(CCC#N)CC1 tested with Staphylococcus epidermidis.
11

Find zone of inhibition at 30 µg/disc for COc1ccccc1N1CCN(CC#N)CC1 on Staphylococcus epidermidis and write it down.
8

---

System: Aspergillus niger
test-protocol: Antifungal activity against Aspergillus niger ITCC 5405 by micro-broth dilution method
Format: functional
outcome-measure: MIC (µg/mL)
Provide only the numeric value, understood in µg/mL.

Please review the following examples before continuing.
compound | unit-name | MIC
C[C@@H]1[C@H](O)[C@@H](C)/C=C/C=C/C=C/C=C/C=C/C=C/C=C/[C@H](O[C@@H]2O[C@H](C)[C@@H](O)[C@H](N)[C@@H]2O)C[C@@H]2O[C@](O)(C[C@@H](O)C[C@@H](O)[C@H](O)CC[C@@H](O)C[C@@H](O)CC(=O)O[C@H]1C)C[C@H](O)[C@H]2C(=O)O [AMPHOTERICIN B] | µg/mL | 5
CN1CCN(CC#N)CC1 | µg/mL | 500

Identify MIC associated with the compound N#CCN1CCN(c2ccccc2)CC1
500

Item N#CCCN1CCN(c2ccccc2)CC1 : provide MIC
500

---

System: Aspergillus niger
test-protocol: Antifungal activity against Aspergillus niger ITCC 5405 by percentage spore germination inhibition method
Format: functional
This section presents compounds with their documented MIC values.
Reply with just the number (in µg/mL).

Sample answers from the record:
smiles-structure | measured-result
N#CCCN1CCN(c2ccccc2)CC1 | 250
N#CCN1CCN(c2ccccc2)CC1 | 250
C[C@@H]1[C@H](O)[C@@H](C)/C=C/C=C/C=C/C=C/C=C/C=C/C=C/[C@H](O[C@@H]2O[C@H](C)[C@@H](O)[C@H](N)[C@@H]2O)C[C@@H]2O[C@](O)(C[C@@H](O)C[C@@H](O)[C@H](O)CC[C@@H](O)C[C@@H](O)CC(=O)O[C@H]1C)C[C@H](O)[C@H]2C(=O)O | 5

Next compound, please.
Return the recorded MIC value; entry: CN1CCN(CC#N)CC1
250

---

Test system: Staphylococcus aureus
test-protocol: Antibacterial activity against Staphylococcus aureus MTCCB 737 at 30 ug/disc after 48 hrs by disc diffusion method
Assay type: functional
cond: read-out: IZ
outcome-measure: zone of inhibition at 30 µg/disc (mm)
Report the figure in mm without appending any unit label.

Example results:
smiles-structure | system-tested | zone of inhibition at 30 µg/disc, mm
N#CCCN1CCN(CCC#N)CC1 | Staphylococcus aureus | 11
N#CCN1CCN(Cc2ccccc2)CC1 | Staphylococcus aureus | 18
COc1ccccc1N1CCN(CCC#N)CC1 | Staphylococcus aureus | 12
N#CCCN1CCN(c2ccccc2)CC1 | Staphylococcus aureus | 13
N#CCN1CCN(c2ccccc2)CC1 | Staphylococcus aureus | 10

Specify reported zone of inhibition at 30 µg/disc for the compound shown: CN1CCN(CC#N)CC1
12

Query zone of inhibition at 30 µg/disc for N#CCCN1CCN(CCO)CC1
18

Could you please provide reported zone of inhibition at 30 µg/disc for CN1CCN(CCC#N)CC1 ? Thanks!
10

Please indicate zone of inhibition at 30 µg/disc recorded for COc1ccccc1N1CCN(CC#N)CC1
9

---

Test system: Staphylococcus aureus
test-protocol: Antibacterial activity against Staphylococcus aureus MTCCB 737 after 18-20 hrs by broth dilution method
Format: functional
Attribute: MIC
Report only the number, with the unit µg/mL understood.

Previously resolved entries follow.
smiles-structure | outcome-measure | measured-result
N#CCCN1CCN(CCC#N)CC1 | MIC | 310
COc1ccccc1N1CCN(CC#N)CC1 | MIC | 625
N#CCN1CCN(c2ccccc2)CC1 | MIC | 310
N#CCCN1CCN(c2ccccc2)CC1 | MIC | 156
COc1ccccc1N1CCN(CCC#N)CC1 | MIC | 156

From here, focus on the item given below.
Query MIC for CN1CCN(CC#N)CC1
310
